Experiment: Oral bioavailability in mouse at 40 mg/kg
Type: ADME, organism-based
Details: in vivo
endpoint.name: bioavailability (%)

• Cn1cncc1-c1c2c(=O)n(C)c(=O)n(CC3CC3)c2nn1Cc1ccnc2ccc(Cl)cc12 = 76

1. C#CCn1c(=O)c2c(-c3cncn3C)n(Cc3ccnc4ccc(Cl)cc34)nc2n(CC2CC2)c1=O
2. Cn1cc(S(C)(=O)=O)cc1-c1c2c(=O)n(C)c(=O)n(CC3CC3)c2nn1Cc1ccnc2ccc(Cl)cc12
Data request: Of 1 and 2 , which shows the smaller bioavailability value? State your choice using its label.
Data returned: 2

* * *

Biological target: Glutamate racemase (Helicobacter pylori J99, UniProt Q9ZLT0)
Sequence (Q9ZLT0 whole entry): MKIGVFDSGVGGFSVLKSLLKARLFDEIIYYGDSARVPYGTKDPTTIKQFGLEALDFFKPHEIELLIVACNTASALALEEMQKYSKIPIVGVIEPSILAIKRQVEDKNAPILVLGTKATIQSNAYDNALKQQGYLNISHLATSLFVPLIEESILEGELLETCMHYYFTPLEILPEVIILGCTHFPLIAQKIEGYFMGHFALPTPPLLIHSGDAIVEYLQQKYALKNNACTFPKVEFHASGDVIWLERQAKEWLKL
endpoint.name: IC50 (µM)

- Cn1cc(C#N)cc1-c1c2c(=O)n(C3CC3)c(=O)n(CC3CC3)c2nn1Cc1ccnc2ccc(Cl)cc12: 0.08
- Cn1cc(C#N)cc1-c1c2c(=O)n(CC#CCN3CCOCC3)c(=O)n(CC3CC3)c2nn1Cc1ccnc2ccc(Cl)cc12: 0.051

I. Cn1cc(C#N)cc1-c1c2c(=O)n(CC#CCO)c(=O)n(CC3CC3)c2nn1Cc1ccnc2ccc(Cl)cc12
II. Cc1nc(N)sc1-c1c2c(=O)n(C)c(=O)n(CC3CC3)c2nn1Cc1ccnc2ccc(Cl)cc12
III. CC(C)Cn1c(=O)n(C)c(=O)c2c(-c3cncn3C)n(Cc3ccnc4ccc(Cl)cc34)nc21
Data request: Put the compounds in ascending order of IC50. Please reply with the labels ordered as requested. Many thanks.
Data returned: I, III, II
(I: 0.057 µM, III: 0.17 µM, II: 0.74 µM)

* * *

System: Helicobacter pylori
Experiment: Antibacterial activity against AcrAB-TolC efflux pump-dificient Helicobacter pylori
Type: functional
endpoint.name: MIC (µg/mL)

Some solved cases for reference:
• Cn1cc(C#N)nc1-c1c2c(=O)n(CC3CC3)c(=O)n(CC3CC3)c2nn1Cc1ccnc2ccc(Cl)cc12 = 2
• Cn1cc(C#N)cc1-c1c2c(=O)n(CCn3cccn3)c(=O)n(CC3CC3)c2nn1Cc1ccnc2ccc(Cl)cc12 = 32

P. C#CC(C)n1c(=O)c2c(-c3cncn3C)n(Cc3ccnc4ccc(Cl)cc34)nc2n(CC2CC2)c1=O (centres undefined)
Q. Cn1cncc1-c1c2c(=O)n(CC3CC3)c(=O)n(CC3CC3)c2nn1Cc1ccnc2ccc(Cl)cc12
Data request: Pick one: P or Q . Which has the bigger MIC number? State your choice using its label.
Data returned: P

* * *

Assay: Intrinsic clearance in mouse liver microsomes at 2 uM assessed per mg of protein
Format: ADME, Microsome
Details: read-out: CLH
endpoint.name: microsomal CLint at 2 µM

Example entries begin here.
- Cc1c[nH]nc1-c1c2c(=O)n(C)c(=O)n(CC3CC3)c2nn1Cc1ccnc2ccc(Cl)cc12: > 100 µL/min/mg
- Cn1cc(C#N)nc1-c1c2c(=O)n(C3CC3)c(=O)n(CC3CC3)c2nn1Cc1ccnc2ccc(Cl)cc12: < 14 µL/min/mg
- C=CCn1c(=O)c2c(-c3nc(C#N)cn3C)n(Cc3ccnc4ccc(Cl)cc34)nc2n(CC2CC2)c1=O: > 100 µL/min/mg

Data request: For Cc1cc(C#N)oc1-c1c2c(=O)n(C)c(=O)n(CC3CC3)c2nn1Cc1ccnc2ccc(Cl)cc12 , what is its reported microsomal CLint at 2 µM?
Data returned: > 100 µL/min/mg

Data request: Further, for Cn1cncc1-c1c2c(=O)n(C3CC3)c(=O)n(CC3CC3)c2nn1Cc1ccnc2ccc(Cl)cc12 ?
Data returned: 6 µL/min/mg

Data request: Moving on to Cn1cncc1-c1c2c(=O)n(CC#CCN3CCOCC3)c(=O)n(CC3CC3)c2nn1Cc1ccnc2ccc(Cl)cc12
Data returned: > 100 µL/min/mg

Data request: Now consider Cn1cc(C#N)cc1-c1c2c(=O)n(CC#N)c(=O)n(CC3CC3)c2nn1Cc1ccnc2ccc(Cl)cc12 .
Data returned: 96 µL/min/mg

Data request: Consider next the molecule C#CCn1c(=O)c2c(-c3cncn3C)n(Cc3ccnc4ccc(Cl)cc34)nc2n(CC2CC2)c1=O in the same way.
Data returned: 18 µL/min/mg

* * *

Tested on: Helicobacter pylori
Assay: Antibacterial activity against AcrAB-TolC efflux pump-dificient Helicobacter pylori
Assay type: functional
endpoint.name: MIC (µg/mL)

// worked examples, MIC included
* Cn1cc(C#N)cc1-c1c2c(=O)n(CC#CCn3cncn3)c(=O)n(CC3CC3)c2nn1Cc1ccnc2ccc(Cl)cc12 | 16
* Cn1cncc1-c1c2c(=O)n(CC#CCN3CCOCC3)c(=O)n(CC3CC3)c2nn1Cc1ccnc2ccc(Cl)cc12 | 16
* Cn1cncc1-c1c2c(=O)n(C3CC3)c(=O)n(CC3CC3)c2nn1Cc1ccnc2ccc(Cl)cc12 | 2
* C#CCn1c(=O)c2c(-c3cc(C#N)cn3C)n(Cc3ccnc4ccc(Cl)cc34)nc2n(CC2CC2)c1=O | 0.3
* C#CCn1c(=O)c2c(-c3cncn3C)n(Cc3ccnc4ccc(Cl)cc34)nc2n(CC2CC2)c1=O | 0.5
* Cn1cc(C#N)cc1-c1c2c(=O)n(CC#CCn3ccnc3)c(=O)n(CC3CC3)c2nn1Cc1ccnc2ccc(Cl)cc12 | 4
* CCn1c(=O)c2c(-c3nc(C#N)cn3C)n(Cc3ccnc4ccc(Cl)cc34)nc2n(CC2CC2)c1=O | 2
* CC(C)n1c(=O)c2c(-c3cncn3C)n(Cc3ccnc4ccc(Cl)cc34)nc2n(CC2CC2)c1=O | 16

a. Cn1cc(C#N)cc1-c1c2c(=O)n(C3CC3)c(=O)n(CC3CC3)c2nn1Cc1ccnc2ccc(Cl)cc12
b. Cn1cc(C#N)cc1-c1c2c(=O)n(CC#CCn3cccn3)c(=O)n(CC3CC3)c2nn1Cc1ccnc2ccc(Cl)cc12
c. CC#CCn1c(=O)c2c(-c3cc(C#N)cn3C)n(Cc3ccnc4ccc(Cl)cc34)nc2n(CC2CC2)c1=O
Data request: Put the items in sequence by MIC, from largest down. # output: labels, in the requested order
Data returned: b, c, a
(b: 4 µg/mL, c: 2 µg/mL, a: 0.13 µg/mL)

a. CCn1c(=O)c2c(-c3cc(C#N)cn3C)n(Cc3ccnc4ccc(Cl)cc34)nc2n(CC2CC2)c1=O
b. Cc1cc(C#N)oc1-c1c2c(=O)n(C)c(=O)n(CC3CC3)c2nn1Cc1ccnc2ccc(Cl)cc12
Data request: Parameter check: reported MIC is higher for which label, a or b ? Give the label of your selection.
Data returned: a
(a: 0.6 µg/mL, b: 0.25 µg/mL)

* * *

Test: Intrinsic clearance in mouse liver microsomes at 2 uM assessed per mg of protein
Type: ADME, Microsome
Conditions: read-out: CLH
endpoint.name: microsomal CLint at 2 µM (µL/min/mg)

• Cc1oc(C#N)cc1-c1c2c(=O)n(C)c(=O)n(CC3CC3)c2nn1Cc1ccnc2ccc(Cl)cc12 = 63

A. Cn1cc(C#N)nc1-c1c2c(=O)n(C)c(=O)n(CC3CC3)c2nn1Cc1ccnc2ccc(Cl)cc12
B. C=CCn1c(=O)c2c(-c3cncn3C)n(Cc3ccnc4ccc(Cl)cc34)nc2n(CC2CC2)c1=O
C. Cn1cncc1-c1c2c(=O)n(C)c(=O)n(CC3CC3)c2nn1Cc1ccnc2ccc(Cl)cc12
Data request: Task for the reader: rank each entry by its microsomal CLint at 2 µM, from the minimum upward. The labels, placed in the requested order, form the answer.
Data returned: C, B, A

* * *

Assay: Intrinsic clearance in human liver microsomes at 2 uM assessed per mg of protein
Assay type: ADME, Microsome
Settings: read-out: CLH
endpoint.name: microsomal CLint at 2 µM (µL/min/mg)

I. CC(C)Cn1c(=O)n(C)c(=O)c2c(-c3cncn3C)n(Cc3ccnc4ccc(Cl)cc34)nc21
II. Cc1nc[nH]c1-c1c2c(=O)n(C)c(=O)n(CC3CC3)c2nn1Cc1ccnc2ccc(Cl)cc12
III. CC(C)n1c(=O)c2c(-c3cc(C#N)cn3C)n(Cc3ccnc4ccc(Cl)cc34)nc2n(CC2CC2)c1=O
IV. Cn1cc(C#N)cc1-c1c2c(=O)n(CC#CCn3ccnc3)c(=O)n(CC3CC3)c2nn1Cc1ccnc2ccc(Cl)cc12
Data request: Please give the order of these compounds when sorted by microsomal CLint at 2 µM, largest value leading. Write out the labels following the order that was asked for.
Data returned: II, IV, III, I

I. Cc1c[nH]nc1-c1c2c(=O)n(C)c(=O)n(CC3CC3)c2nn1Cc1ccnc2ccc(Cl)cc12
II. CC#CCn1c(=O)c2c(-c3cc(C#N)cn3C)n(Cc3ccnc4ccc(Cl)cc34)nc2n(CC2CC2)c1=O
Data request: Param metric = microsomal CLint at 2 µM; output whichever of I , II has the minimum value. In your reply, give the label of the chosen option.
Data returned: I
(I: 20 µL/min/mg, II: 99 µL/min/mg)
